System: hT40, dGA, dGAE and truncated tau fragments
Assay: Binding ELISA / epitope mapping of anti-tau scAbs with truncated tau proteins and 13mer peptides
Design: species or system human
Conditions: Table 18; '3a' & '3b' series scAbs
We begin with a simple list: items and their reported Short epitope on hT40.

Consider the worked cases shown below.
Molecule: 3bG4: N-terminal anti-tau clone, Table 6; SEQ ID NO: 425 (protein, 3bG4 amino acid sequence) QVQLQESGPSLVKPSQTLSLTCTISGFSLISNGVGWVRQAPGKVPEWVGDIASSGKAYSNPALKSRLSITRDTSKSQVSLSLRSVTTEDTAVYYCVRCRDGGVTYGYDIDYWGPGLLVTVSSEGKSSGASGESKVDDQAVLTQPSSVSKSLGQSVSITCSGSTSNVGSGNDVSWFQQVPGSAPKLLFYGATNRASGVPDRFSGSRSGNTATLTITSLQAEDEADYYCGSYDSNSGGIFGSGTRLTVLG
Short epitope on hT40: 1-49

Molecule: 3aG3: N-terminal anti-tau clone, Table 6; SEQ ID NO: 424 (protein, 3aG3 amino acid sequence) QVQLQESGPSLVKPSQTLSLTCTVSGFSLSSNGVGWVRQAPGKVPEWVGDISSSGKAYANPALKSRLSITRDTAKTQVFLSLSSVTTEDTAVYYCVRCRDGGVSYGYDIDYWGPGLLVTVSSEGKSSGASGESKVDDQAVLTQPPSVSGSPGQRVSITCSGSSSNIGGGNYLSWFQQVPGSAPKLLIYGATSRASGVPDRFSGSRSGNTATLTISSLQAEDEADYYCASFDTSSGGIFGAGTRLTVLG
Short epitope on hT40: 1-49

Molecule: 3aB7: anti-tau clone, Table 7; SEQ ID NO: 420 (protein, 3aB7 amino acid sequence) QVQLQESGPSLVKPSQTLSLTCTVSGFSLTSNGVGWVRQAPGKVPEWVGDKSSAGKTYGNPALKSRLSITRDTSKSQVSLSLSSVTTEDTAVYYCVRCRDGGVTYGYDVDYWGPGLLVTVSSEGKSSGASGESKVDDQAVLTQPSSVSKSLGQSVSITCSGSSSNVGYGDVVSWFQQFPGSAPKLLIFGTTTRASGVPDRFSGSRSGNAATLTINSLQAEDEADYYCASFDSDSGGIAGSGTRLTVLG
Short epitope on hT40: 49-111

Molecule: 3bF4: anti-tau clone, Table 7; SEQ ID NO: 421 (protein, 3bF4 amino acid sequence) QVQLQESGPSLVKPSQTLSLTCTVSGFSLSSNGVGWVRQAPGKVPEWLGDISSVGKKYANPALKSRLSFTRDTSKSQVSLSLSSVTTEDTAVYYCVKCRDGGVTYGYDIDYWGPGLLVTVSSEGKSSGASGESKVDDQAVLTQPSSVSKSTGQTVSITCSGSSSNVGLRNYVTWFQQVPGSAPKLLIYGATSRASGIPDRFSGSRSGNTATLIISSLQAEDEADYYCASADTNDGGVFGSGTRLTVLG
Short epitope on hT40: 49-111

# evaluate next
3aD3: N-terminal anti-tau clone, Table 6; SEQ ID NO: 422 (protein, 3aD3 amino acid sequence) QVQLQESGPSLVKPSQTLSLTCTVSGFSLTSNGVGWVRRAPGKVPEWVGDISSGGKVYGHPALKSRLSITRDTSKSQVSLSVSSVTSEDTAVYYCVRCRDGGVSYGYDSDYWGPGLLVTVSSEGKSSGASGESKVDDQAVVTQPSSVSKSLGQSVSITCSGSSSNVGYGDYVGWFQQVPGSAPKLLIYGVTERASGVPDRFSGSRSGNTATLTISSIQAEDEADYYCASYDDSSGGIFGSGTRLTVLG has a reported Short epitope on hT40 of 1-49
